meta.source: patent US9133155B2

targetDesc: E. coli RNA polymerase σ^70 holoenzyme (Escherichia coli, UniProt P0A8T7+P0A8V2)
experimentNotes: Inhibition of Escherichia coli RNA polymerase (fluorescence-detected)
particulars: read-out: IC50 E. coli RNAP
Assignment: determine reported pIC50 for the given molecules.
Give bare numbers, as −log10 of the molar value.

Some solved entries appear below for comparison.
molecule | pIC50
CCCCC/C(C)=C\C=C(/C)C(=O)c1c(O)cc(CCC/C=C/NC(=O)OC)oc1=O [compound 10] | 7.40
CCCCCCC/C=C/C=C(\C)C(=O)c1c(O)cc(C(C)CC/C=C/NC(=O)OC)oc1=O (stereo not drawn) [compound 3] | 8.17
CCCCC/C(C)=C/C=C(\C)C(=O)c1c(O)cc(C(C)CC/C=C/NC(=O)OC)oc1=O (stereo not drawn) [compound 8] | 8.40
CCCCCC/C(C)=C/C=C(\C)C(=O)c1c(O)cc(CCC/C=C/NC(=O)OCC)oc1=O [compound 7] | 7.20

Give pIC50 for all molecules that follow.
1. CCCC/C(C)=C/C=C(\C)C(=O)c1c(O)cc(C(C)CC/C=C/NC(=O)OC)oc1=O (stereo not drawn) [Myx B, reference compound]
2. CCCCCC/C=C/C=C(\C)C(=O)c1c(O)cc(C(C)CC/C=C/NC(=O)OC)oc1=O (stereo not drawn) [compound 2]

Ans:
1: 7.89; 2: 7.96

Give pIC50 for all molecules that follow.
1. CCCCC/C(C)=C/C=C(\C)C(=O)c1c(O)cc(CCC/C=C/NC(=O)OC)oc1=O [compound 5]
2. CCCC/C(C)=C/C=C(\C)C(=O)c1c(O)cc(CCC/C=C/NC(=O)OC)oc1=O [7-desmethyl-Myx B, reference compound]
3. CCCCC/C=C/C=C(\C)C(=O)c1c(O)cc(C(C)CC/C=C/NC(=O)OC)oc1=O (stereo not drawn) [compound 1]

Ans:
1: 8.41; 2: 7.66; 3: 7.92

Give pIC50 for all molecules that follow.
1. CCCCCC/C(C)=C/C=C(\C)C(=O)c1c(O)cc(CCC/C=C/NC(=O)OC)oc1=O [compound 6]
2. CCCCCC/C(C)=C/C=C(\C)C(=O)c1c(O)cc(C(C)CC/C=C/NC(=O)OC)oc1=O (stereo not drawn) [compound 9]
3. CCCCCCCC/C=C/C=C(\C)C(=O)c1c(O)cc([C@H](C)CC/C=C/NC(=O)OC)oc1=O (racemic) [compound 4]

Ans:
1. 8.41
2. 8.33
3. 8.34

---

targetDesc: M. tuberculosis RNA polymerase (Mycobacterium tuberculosis, UniProt P9WGY7+P9WGY9)
Sequence (P9WGY5 whole entry): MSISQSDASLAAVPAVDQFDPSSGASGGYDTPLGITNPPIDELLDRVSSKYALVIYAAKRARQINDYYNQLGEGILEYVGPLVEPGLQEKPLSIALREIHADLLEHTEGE
Sequence (P9WGZ1 whole entry, further chain): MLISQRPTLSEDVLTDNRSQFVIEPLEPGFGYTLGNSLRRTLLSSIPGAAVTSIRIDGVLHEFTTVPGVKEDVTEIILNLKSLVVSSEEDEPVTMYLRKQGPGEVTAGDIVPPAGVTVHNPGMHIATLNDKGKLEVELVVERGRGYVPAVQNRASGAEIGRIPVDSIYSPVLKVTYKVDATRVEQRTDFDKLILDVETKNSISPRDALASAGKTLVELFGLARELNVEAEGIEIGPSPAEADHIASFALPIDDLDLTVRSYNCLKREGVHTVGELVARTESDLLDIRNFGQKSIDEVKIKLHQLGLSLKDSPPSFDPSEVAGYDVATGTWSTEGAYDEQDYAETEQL
Sequence (P9WGY9 whole entry): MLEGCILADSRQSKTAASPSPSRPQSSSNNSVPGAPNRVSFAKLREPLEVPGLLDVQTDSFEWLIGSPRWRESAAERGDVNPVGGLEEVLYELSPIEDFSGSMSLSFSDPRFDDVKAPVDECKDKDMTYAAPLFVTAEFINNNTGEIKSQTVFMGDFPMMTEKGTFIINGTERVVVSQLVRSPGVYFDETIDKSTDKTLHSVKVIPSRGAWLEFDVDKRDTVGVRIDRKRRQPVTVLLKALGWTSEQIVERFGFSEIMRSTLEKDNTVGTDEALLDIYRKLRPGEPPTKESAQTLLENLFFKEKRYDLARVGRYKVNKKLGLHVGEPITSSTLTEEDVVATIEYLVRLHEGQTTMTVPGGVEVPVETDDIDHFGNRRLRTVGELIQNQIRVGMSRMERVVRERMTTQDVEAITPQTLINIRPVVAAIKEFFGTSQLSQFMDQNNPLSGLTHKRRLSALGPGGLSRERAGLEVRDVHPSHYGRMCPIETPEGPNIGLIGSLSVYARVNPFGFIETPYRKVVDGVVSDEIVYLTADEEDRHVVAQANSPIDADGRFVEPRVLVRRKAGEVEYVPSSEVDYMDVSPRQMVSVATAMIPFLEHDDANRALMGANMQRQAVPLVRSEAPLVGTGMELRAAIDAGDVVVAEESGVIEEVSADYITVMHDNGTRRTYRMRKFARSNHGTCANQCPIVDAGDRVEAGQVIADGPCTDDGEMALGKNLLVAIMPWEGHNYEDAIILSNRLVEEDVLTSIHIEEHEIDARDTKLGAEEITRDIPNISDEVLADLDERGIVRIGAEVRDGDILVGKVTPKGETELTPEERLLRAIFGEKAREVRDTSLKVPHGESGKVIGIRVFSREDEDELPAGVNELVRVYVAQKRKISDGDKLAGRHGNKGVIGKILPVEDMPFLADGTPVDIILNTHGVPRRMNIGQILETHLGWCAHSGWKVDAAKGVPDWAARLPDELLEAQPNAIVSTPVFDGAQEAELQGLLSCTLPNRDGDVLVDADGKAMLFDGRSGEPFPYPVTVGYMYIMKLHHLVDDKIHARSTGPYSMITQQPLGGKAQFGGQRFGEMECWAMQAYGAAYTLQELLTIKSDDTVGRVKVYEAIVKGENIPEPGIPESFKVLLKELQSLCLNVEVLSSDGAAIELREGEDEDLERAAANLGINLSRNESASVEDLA
Sequence (P9WGY7 whole entry): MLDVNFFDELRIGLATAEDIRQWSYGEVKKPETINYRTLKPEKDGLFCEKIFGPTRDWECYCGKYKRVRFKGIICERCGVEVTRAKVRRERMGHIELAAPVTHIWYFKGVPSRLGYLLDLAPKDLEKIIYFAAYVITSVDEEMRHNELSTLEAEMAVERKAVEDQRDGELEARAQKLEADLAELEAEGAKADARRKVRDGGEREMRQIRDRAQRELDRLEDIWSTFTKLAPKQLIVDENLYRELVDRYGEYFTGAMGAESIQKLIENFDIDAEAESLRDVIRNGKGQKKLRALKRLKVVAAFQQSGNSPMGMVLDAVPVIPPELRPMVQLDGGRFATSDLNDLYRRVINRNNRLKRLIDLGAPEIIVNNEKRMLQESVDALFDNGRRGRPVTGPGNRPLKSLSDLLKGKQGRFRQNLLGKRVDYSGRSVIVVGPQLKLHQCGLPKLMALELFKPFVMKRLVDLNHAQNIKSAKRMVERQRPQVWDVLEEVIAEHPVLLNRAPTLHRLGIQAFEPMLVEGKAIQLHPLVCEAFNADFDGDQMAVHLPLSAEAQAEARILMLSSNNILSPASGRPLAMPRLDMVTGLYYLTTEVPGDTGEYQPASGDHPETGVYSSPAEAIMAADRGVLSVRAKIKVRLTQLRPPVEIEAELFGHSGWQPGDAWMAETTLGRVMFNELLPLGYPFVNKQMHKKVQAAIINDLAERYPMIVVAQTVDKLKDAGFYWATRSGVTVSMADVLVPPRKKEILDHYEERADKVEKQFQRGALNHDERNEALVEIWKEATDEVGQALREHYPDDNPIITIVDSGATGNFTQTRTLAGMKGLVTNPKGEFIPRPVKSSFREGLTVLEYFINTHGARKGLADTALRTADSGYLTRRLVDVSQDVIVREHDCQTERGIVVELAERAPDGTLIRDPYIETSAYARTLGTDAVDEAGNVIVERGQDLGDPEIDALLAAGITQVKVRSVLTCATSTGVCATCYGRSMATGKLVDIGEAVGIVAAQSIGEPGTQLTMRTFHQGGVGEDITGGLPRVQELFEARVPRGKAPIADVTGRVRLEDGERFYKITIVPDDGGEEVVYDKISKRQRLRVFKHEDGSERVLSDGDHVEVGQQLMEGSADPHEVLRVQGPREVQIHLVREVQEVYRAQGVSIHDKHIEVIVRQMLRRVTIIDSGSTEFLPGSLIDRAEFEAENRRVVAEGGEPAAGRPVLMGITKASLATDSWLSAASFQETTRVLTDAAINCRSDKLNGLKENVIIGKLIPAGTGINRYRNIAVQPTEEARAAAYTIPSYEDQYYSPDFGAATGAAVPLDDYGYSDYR
Sequence (P9WGI1 whole entry, further chain): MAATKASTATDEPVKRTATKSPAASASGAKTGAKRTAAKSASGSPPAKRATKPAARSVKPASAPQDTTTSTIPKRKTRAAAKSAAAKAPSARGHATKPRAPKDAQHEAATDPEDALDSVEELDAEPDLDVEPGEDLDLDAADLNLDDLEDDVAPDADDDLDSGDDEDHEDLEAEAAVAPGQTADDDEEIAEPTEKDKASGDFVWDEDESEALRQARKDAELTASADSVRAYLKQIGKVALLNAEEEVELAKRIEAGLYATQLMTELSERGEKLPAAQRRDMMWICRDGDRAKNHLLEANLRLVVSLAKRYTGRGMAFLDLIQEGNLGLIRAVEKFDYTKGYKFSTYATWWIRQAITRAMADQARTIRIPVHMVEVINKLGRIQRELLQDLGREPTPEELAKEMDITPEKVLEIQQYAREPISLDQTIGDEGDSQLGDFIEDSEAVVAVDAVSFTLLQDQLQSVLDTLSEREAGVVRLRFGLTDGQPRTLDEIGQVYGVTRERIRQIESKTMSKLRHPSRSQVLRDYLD
experimentNotes: Inhibition of Mycobacterium tuberculosis RNA polymerase (fluorescence-detected)
Assay type: biochemical
particulars: read-out: IC50 M. tuberculosis RNAP
quantityKind: pIC50
One number for each entry, as −log10 of the molar value.

Some solved entries appear below for comparison.
compound | quantityKind | recordedMeasurement
CCCCC/C(C)=C/C=C(\C)C(=O)c1c(O)cc(C(C)CC/C=C/NC(=O)OC)oc1=O (stereo not drawn) [compound 8] | pIC50 | 7.72
CCCCCC/C(C)=C/C=C(\C)C(=O)c1c(O)cc(C(C)CC/C=C/NC(=O)OC)oc1=O (stereo not drawn) [compound 9] | pIC50 | 7.44

For the next question, use this compound.
Q: Which value of pIC50 has been reported for CCCCCC/C(C)=C/C=C(\C)C(=O)c1c(O)cc(CCC/C=C/NC(=O)OC)oc1=O [compound 6] in the records?
Ans: 7.33
